Each entry below carries its recorded shrunken log2 fold change.
Test system: Escherichia coli TOP10
Assay: shrunken log2 fold change of peptide-encoding DNA abundance (4.5 h post-induction vs induction); higher = less antimicrobial activity (less host growth inhibition)
Details: time post-induction: 4.5 h; library: site-saturation at positions 5, 18, 19, 20
Enter the number alone.

Worked examples, 5 sequences total:
[[record]]
sequencecontent = "RRIRSRPPRLPRPRPRPPTTPRP"
readoutnumber = 0.391

[[record]]
sequencecontent = "RRIRNRPPRLPRPRPRPQMIPRP"
readoutnumber = -0.0608

[[record]]
sequencecontent = "RRIRDRPPRLPRPRPRPRFRPRP"
readoutnumber = 0.951

[[record]]
sequencecontent = "RRIRSRPPRLPRPRPRPDYKPRP"
readoutnumber = -0.722

[[record]]
sequencecontent = "RRIRCRPPRLPRPRPRPYLSPRP"
readoutnumber = -0.577


Param readout= shrunken log2 fold change; system= Escherichia coli TOP10; entry= "RRIRGRPPRLPRPRPRPYCKPRP" ; returns value.
0.0688

Param readout= shrunken log2 fold change; system= Escherichia coli TOP10; entry= "RRIRMRPPRLPRPRPRPQYYPRP" ; returns value.
-0.805

Param readout= shrunken log2 fold change; system= Escherichia coli TOP10; entry= "RRIRNRPPRLPRPRPRPYLIPRP" ; returns value.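 Note: peptides expressed intracellularly from a pBAD plasmid library in pooled LB shake-flask culture, induced with 0.3% L-arabinose, DNA abundance read by NGS, three biological replicates, DESeq2 with apeglm shrinkage.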
-0.0464
